target or system: T1, human CXCR4 (human, UniProt P61073 1-352)
T1 construct: whole, on cells; Same receptor used on cells, on VLPs and in membrane extracts; also called hCXCR4; human chemokine receptor CXCR4
T1 sequence (P61073 whole entry): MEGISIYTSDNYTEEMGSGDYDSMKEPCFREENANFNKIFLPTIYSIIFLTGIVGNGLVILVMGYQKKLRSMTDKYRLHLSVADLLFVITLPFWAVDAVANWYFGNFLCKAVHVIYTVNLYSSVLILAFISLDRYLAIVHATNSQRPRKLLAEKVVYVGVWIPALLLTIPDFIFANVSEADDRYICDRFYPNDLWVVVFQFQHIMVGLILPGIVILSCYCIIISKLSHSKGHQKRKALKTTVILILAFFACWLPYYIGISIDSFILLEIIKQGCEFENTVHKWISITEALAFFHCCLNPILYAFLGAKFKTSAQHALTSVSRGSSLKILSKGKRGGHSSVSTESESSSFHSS
assay overview: binding to Caki-CXCR4 cells, Table C-3
pEC50: −log10 of the molar value.
result type: pEC50

4CXCR281E10 (VHH, Family member of 238D4 (family 17); also called P4CXCR281E10; not shown: C-terminal c-myc tag and His6 tag) VHH: EVQLVESGGGLVQAGGSLRLSCKASGGTFNNYAMGWFRRAPGKEREFVAAITRSGVRSGVSAIYGDSVKDRFTISRDNVKNTLYLQMNTLKPEDTAVYTCAASAIGSGALRRFEYDYSGQGTQVTVSS: 8.51
4CXCR010G10 (VHH, Alexa-647 label in the competition FACS of D-2, also called P4CXCR10G10; not shown: C-terminal c-myc tag and His6 tag) VHH: EVQLVESGGGLVQAGGSLRLSCAASGRTFNSYAMAWFRQAPGKERENVAAIRWSGGRATKYADSVRGRFTISKDNAKNTVYLQMSSLKPEDTAVYYCATQTYYRSGLASTRDFDSWGQGTQVTVSS: 8.48
4CXCR010E09 (VHH, Monovalent Nanobody from E. coli; also called 10E9; P4CXCR10E09; not shown: C-terminal c-myc tag and His6 tag) VHH: EVQLVESGGGLVQTGGSLRLSCAASGRTFSSYAMGWFRRAPGKEREFVATISWRGDRKYYSESVKDRFTIARGRSNKNAVYLQMNSLKPEDTAVYYCAKDRAPYGSGSPDVKQYEHWGQGTQVTVSS: 8.62
4CXCR014A02 (VHH, also called 14A2; not shown: C-terminal c-myc tag and His6 tag) VHH: EVQLVESGGGLVQAGGSLRLSCVASGISSSIRNMGWYRQAPGKQRESVATISSGGNKDYTDAVKDRFTISRDTTKNTVYLQMSSLKPEDTAVYYCKIEAGTGWATRRGYTYWGQGTQVTVSS: 8.40
